ASSAY TARGET: influenza A virus RNA polymerase (RNAP; PB1-PB2-PA) (Influenza A virus A/NorthernTerritories/60/68 (H3N2)) (UniProt Q910D6+Q91MB1+P03433)
ASSAY: fluorescence anisotropy
MEASURED METRIC: pKd
// pKd: -log10(molar conc.)

// query Given AGCGAAAGCAGGAGUUU [5' cRNA] , state its recorded pKd.
// result 7.36

* * *

ASSAY TARGET: influenza A virus RNA polymerase (RNAP; PB1-PB2-PA) (Influenza A virus A/NorthernTerritories/60/68 (H3N2)) (UniProt Q910D6+Q91MB1+P03433)
ASSAY: smFRET titration
MEASURED METRIC: pKd
// pKd: -log10(molar conc.)

// query Given AGCGAAAGCAGGAGUUU / UAAACUCCUUGUUUCUACU [cRNA promoter 5U17/3U4] , state its recorded pKd.
// result 7.89
